All figures here come from patent US11958821B2.

# TEST_METHOD_NOTES: Dynamic vapor sorption (DVS) analysis with post-DVS XRPD
# Format: physicochemical
# TEST_SETTINGS: solids after DVS analysis
# Description: DVS analysis was carried out using a TA Instruments Q5000 Dynamic Vapor Sorption analyzer. The instrument was calibrated with standard weights and a sodium bromide standard for humidity. […] The sample was analyzed at 25° C. with a maximum equilibration time of one hour in 10% relative humidity (RH) steps from 5 to 95% RH (adsorption cycle) and from 95 to 5% RH (desorption cycle). […] The percent weight change values were calculated using Microsoft Excel®.

COMPOUND	Post-DVS XRPD (form change)
CCC(Cc1ccc2c(c1)OCO2)NC.O=C(O)CCC(=O)O (stereo not shown) [MBDB succinate Form 2]	no form change
CCC(Cc1ccc2c(c1)OCO2)NC.O=P(O)(O)O (stereo not shown) [Phosphate 1]	no form change
CCC(Cc1ccc2c(c1)OCO2)NC.O=C(O)/C=C\C(=O)O (stereo not shown) [MBDB maleate Form 1]	no form change

###

# TEST_METHOD_NOTES: Physical stability of MBDB salts at 40° C./75% RH
# Assay type: physicochemical
# TEST_SETTINGS: 40° C./75% RH overnight
ENDPOINT_NAME: Physical Stability

Past entries and their recorded results:
COMPOUND	Physical Stability
CCC(Cc1ccc2c(c1)OCO2)NC.O=C(O)CCC(=O)O (single isomer, unassigned) [Succinate 1]	Tacky solids
CCC(Cc1ccc2c(c1)OCO2)NC.O=C(O)CC(O)(CC(=O)O)C(=O)O (stereo not shown) [Citrate 1]	Tacky solids
CCC(Cc1ccc2c(c1)OCO2)NC.O=P(O)(O)O (stereo not shown) [Phosphate 1]	No change
CCC(Cc1ccc2c(c1)OCO2)NC.O=C(O)/C=C\C(=O)O (stereo not shown) [Maleate 1]	No change
CCC(Cc1ccc2c(c1)OCO2)NC.Cc1ccc(S(=O)(=O)O)cc1 (stereo not shown) [Tosylate 1]	No change

Q) Give its Physical Stability value. Item: CCC(Cc1ccc2c(c1)OCO2)NC.O=C(O)CCC(=O)O (single isomer, unassigned) [Succinate 2]
A) No change

Q) Which Physical Stability reading was recorded for the compound CCC(Cc1ccc2c(c1)OCO2)NC.O=C(O)/C=C/C(=O)O (stereo not shown) [Fumarate 1] ?
A) No change

Q) I'd like to know its Physical Stability. The compound in question is CCC(Cc1ccc2c(c1)OCO2)NC.O=C(O)CC(=O)O (stereo not shown) [Malonate 1]
A) No change

Q) Return reported Physical Stability; argument: CCC(Cc1ccc2c(c1)OCO2)NC.O=C(O)[C@@H](O)[C@H](O)[C@H](O)[C@@H](O)C(=O)O (stereo not shown) [Galactarate 1]
A) No change
